- System Tested: T1, FZD8 CRD (Homo sapiens, UniProt Q9H461)
- T1 construct: K31-D155; GPI anchor signal (C); expressed in transfected cells; host or cells: CHO cells, lentiviral pLenti-puro
- T1 sequence (Q9H461 31-155): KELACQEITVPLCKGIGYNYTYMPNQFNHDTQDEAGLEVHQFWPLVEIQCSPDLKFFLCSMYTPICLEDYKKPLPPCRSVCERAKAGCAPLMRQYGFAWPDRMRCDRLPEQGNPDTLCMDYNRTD
- Assay Procedure: Immunofluorescence of anti-FZD5 Fab binding to CHO cells overexpressing Frizzled CRD
- Design: key: −: no binding; +: very weak binder; ++: weak binder; +++: good binder; ++++: very good binder
Property Name: Immunofluorescence binding, Frizzled CRD overexpressed on CHO cells: FZD8

>  <Molecule>
Fab-2933: anti-FZD5 Fab with antibody variable region Fv-2933; CDR SEQ ID NOs: 35, 36, 72, 109, 148, 177 (antibody, V domains shown) VH: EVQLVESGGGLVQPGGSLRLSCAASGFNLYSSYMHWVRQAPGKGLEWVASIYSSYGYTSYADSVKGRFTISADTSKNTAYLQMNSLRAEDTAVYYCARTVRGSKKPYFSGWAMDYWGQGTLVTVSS VL: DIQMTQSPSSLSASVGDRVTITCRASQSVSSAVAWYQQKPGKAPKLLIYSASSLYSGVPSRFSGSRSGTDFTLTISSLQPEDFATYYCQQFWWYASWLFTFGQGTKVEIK

>  <Measurement>
+

$$$$
>  <Molecule>
Fab-2915: anti-FZD5 Fab with antibody variable region Fv-2915; CDR SEQ ID NOs: 35, 36, 54, 93, 130, 166 (antibody, V domains shown) VH: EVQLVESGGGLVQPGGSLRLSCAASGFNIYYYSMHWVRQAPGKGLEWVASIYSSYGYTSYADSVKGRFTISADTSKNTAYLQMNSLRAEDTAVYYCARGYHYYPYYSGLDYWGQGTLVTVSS VL: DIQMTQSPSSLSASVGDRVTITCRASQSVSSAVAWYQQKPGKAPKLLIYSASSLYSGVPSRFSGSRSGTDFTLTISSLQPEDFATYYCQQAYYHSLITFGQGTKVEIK

>  <Measurement>
+

$$$$
